Listing of entries alongside the reported AUC(0-t) at 24 h.
# test.summary: AUC (0 to t) in Sprague-Dawley rat at 15 mg/kg, po measured upto 1440 mins by LC-MS analysis
# Type: ADME, organism-based
# condition.description: in vivo
Numeric answer only, unit ng·h/mL assumed.

chemical.string	u	AUC(0-t) at 24 h
Cc1ccccc1CN1C(=O)C2=C(CCN(Cc3ccccc3)C2)N2CCN=C12	ng·h/mL	1410

Lab note: next molecule to report on.
# get_value(readout='AUC(0-t) at 24 h', item= `O=c1c2c(n3ccnc3n1Cc1ccc(C(F)(F)F)cc1)CCN(Cc1cccc(Cl)c1)C2` )
16400
